Data provenance is the supplement of paper PMC10567573.

B1: SOAT1 (parent)
chain: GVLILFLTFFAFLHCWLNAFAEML

- Variants of: B1
- methodSummary: protein stability index of a GFP-peptide fusion (GPS, HEK-293T) (PSI 1-6); higher = more stable;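 further: lentivirally expressed fusions sorted by FACS into six bins by GFP to DsRed ratio, PSI derived from sequencing read proportions per bin multiplied by bin number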
- assayContext: c terminus: a fixed tail appended
recordedEndpoint: protein stability index
Form rule: numeric answer, no unit written next to it.

Some variants with known protein stability index results, for comparison:
L13G	2.86
V2T	2.72
L13W	3.93
V2M	2.26
G1A	3.39
F12I	2.6
A21V	2.73
A21I	2.93

Alright, here's another variant for you.
Please fill in: protein stability index reported for L7D = 2.11
